Test system: SK-OV-3 ovarian
Assay: NCI-60 one-dose screen, 48 h (100 = growth as untreated, 0 = no growth, -100 = all killed)
Settings: 10 µM unless noted
Compounds without any hit were thinned out: in the full panel of roughly 83,000, 20% have a hit. Calls of active or inactive are those of the source. The calls were made as follows: active = growth percent below 10; inactive = the rest.
Would you kindly list growth for each of these compounds?

Batch request: growth per item, same order as input.
1. Cc1cccc(C)c1NC(=O)CSC(=S)N1CCCCC1
2. Cc1ccc2[nH]cc(-c3nc(-c4cn(C)c5ncccc45)cs3)c2c1
3. COc1ccc(-c2nc(SCC(=O)Nc3ccc(C(C)=O)cc3)[nH]c(=O)c2C#N)cc1
4. N#C/C(=C\c1ccc(-c2ccc(F)cc2)o1)c1nc(-c2ccco2)cs1
5. COc1cnc2c(c1)C(=O)c1c-2n(CCCNCCN2CCOCC2)c(=O)c2cc([N+](=O)[O-])ccc12
6. COCCNC1=C(Cl)C(=O)c2ccccc2C1=O
7. [B-][N+](CC)(CC)c1ccccc1

A)
1: 110% (inactive); 2: 102% (inactive); 3: 79.5% (inactive); 4: 103% (inactive); 5: -12.9% (active); 6: 116% (inactive); 7: 109% (inactive)

Batch request: growth per item, same order as input.
1. Cc1cc2nc3c4cc([N+](=O)[O-])cc([N+](=O)[O-])c4n(CCN(C)C)c3nc2cc1C
2. O=c1c(CNc2ccc(S(=O)(=O)Nc3ncccn3)cc2)coc2ccccc12
3. CC1(C)c2ccccc2C(=O)C1(Br)Cc1ccccc1 (centres undefined)
4. Cc1cc(Cl)c2c(N(C)C)cccc2n1
5. COc1ccc(-c2nc3ccccn3c2-c2nc3ccc(Cl)cc3[nH]2)cc1

A)
1. 90.2% (inactive)
2. 98.7% (inactive)
3. 110% (inactive)
4. 92.4% (inactive)
5. 107% (inactive)

Batch request: growth per item, same order as input.
1. COc1cccc(-c2nn(-c3ccccc3)cc2-c2ccnc(NCCNS(=O)(=O)c3ccc(C(F)(F)F)cc3)c2)c1
2. O=P(O)(c1ccccc1)c1ccccc1I
3. CCC(c1ccc(OC)cc1)C(CC)c1ccc(O)c(CN2CCCCC2)c1 (centres undefined)
4. Cn1cc(-c2nc(-c3cn(C)c4ncccc34)cs2)c2cc(F)ccc21
5. N#CC1C(=N)Cc2ccccc2-c2ccccc21 (centres undefined)

A)
1: 24.5% (inactive); 2: 86.8% (inactive); 3: 84.9% (inactive); 4: 57.4% (inactive); 5: 66.7% (inactive)

Batch request: growth per item, same order as input.
1. Cn1cc(-c2csc(-c3cn(CCNC(=O)OC(C)(C)C)c4ccc(F)cc34)n2)c2cccnc21
2. COc1cccc(-c2nn(-c3ccccc3)cc2-c2ccnc(NCCCN)c2)c1
3. COc1cc(-c2cc(-c3nc4ccccc4[nH]3)[nH]n2)cc(OC)c1OC
4. CN(CSc1ccc(Cl)cc1)c1ccc(CSc2ccc(Cl)cc2)cc1

A)
["96.6% (inactive)", "70.9% (inactive)", "42.4% (inactive)", "108% (inactive)"]
